System: UO-31 renal
assay.summary: NCI tumour cell line growth inhibition, 48 h
readout.label: GI50

> print(dat)
                              line.notation  readout.label   result
1  O=C(Cc1ccc(/C=C/C(=O)c2ncc[nH]2)cc1)Nc1ccc(Cl)cc1           GI50  1690 nM
2  COc1nc2c(cc1S(=O)(=O)c1ccccc1)CCc1c-2cnn1-c1ccccc1Cl           GI50  3130 nM
3  N#Cc1c(O)c2c(c(O)c1C#N)C(=O)c1ccccc1C2=O           GI50  2300 nM

====

Test system: SNB-75 CNS
assay.summary: NCI tumour cell line growth inhibition, 48 h
readout.label: TGI

> print(dat)
                              line.notation  measurement.target    result
1  CCOC(=O)c1c(N)n(-c2ccccc2)c(=S)n(-c2ccccc2)c1=O          SNB-75 CNS  > 100 µM
2       O=C(O)c1ccc(NS(=O)(=O)Cc2ccccc2)cc1          SNB-75 CNS  > 100 µM
3  O=c1nc2c(c(-c3cccc(Cl)c3)[nH]1)COC/C2=C\c1cccc(Cl)c1          SNB-75 CNS  > 100 µM
4            Cc1nc2cc(C(F)(F)F)ccc2[nH]c1=O          SNB-75 CNS  > 100 µM
5       CN(O)C(=O)Cc1ccc(OCc2cccc(Cl)c2)cc1          SNB-75 CNS  > 100 µM
6               O=C1C(Br)=Cc2c(Cl)sc(Cl)c21          SNB-75 CNS   30.4 µM

====

Recorded TGI by entry
Test system: SK-MEL-2 melanoma
assay.summary: NCI tumour cell line growth inhibition, 48 h
readout.label: TGI

> print(dat)
                                    compound  readout.label    result
 1              O=C1CC[C@H]2CNC(=O)C[C@H]2C1            TGI  > 100 µM
 2  OCc1c(-c2cccc3ccccc23)sc(-c2cccc3ccccc23)c1CO            TGI   28.2 µM
 3  COc1ccccc1NC(=O)c1ccc(/C=C/C(=O)c2nccn2C)cc1            TGI   10.8 µM
 4  COC(=O)[C@@H](C)C[C@H](Cc1ccccc1)NC(=O)c1nc([C@@H](C[C@H](C(C)C)N(C)C(=O)[C@@H](NC(=O)[C@H]2CCCN2C)C(C)C)OC(C)=O)sc1C            TGI   > 25 µM
 5  O=c1nc2c(c(-c3cccc(Cl)c3)[nH]1)COC/C2=C\c1cccc(Cl)c1            TGI  > 100 µM
 6      CN(C)CCNc1nc2ccccc2c2[nH]c3ccccc3c12            TGI   20.9 µM
 7                              CCOC(=O)CCCO            TGI  > 100 µM
 8  CC1(C)N=C(N)N=C(N)N1c1ccc(CCCCc2ccc(S(=O)(=O)F)cc2Cl)c(Cl)c1            TGI   20.3 µM
 9  COc1ccc(/C=C(/C(=O)O)c2cc(OC)c(OC)c(OC)c2)cc1            TGI  > 100 µM
10  CC(C)=CC1C(C(=O)O)C1(C)C (stereo not given)            TGI  > 750 µM

====

System: COLO 205 colon
assay.summary: NCI tumour cell line growth inhibition, 48 h
Recorded TGI by entry
readout.label: TGI

> print(dat)
                                    compound  readout.label    result
 1  CCOC(=O)C1CC(O)C(=O)N1C (centres undefined)            TGI  > 100 µM
 2                  S=C1NCCN1C1=Nc2ccccc2CO1            TGI  > 100 µM
 3  C[Si](C)(C)c1ccc(CC2(Cc3ccc([Si](C)(C)C)cc3)CCNC2)cc1            TGI   3.19 µM
 4  O=C(O/N=C1/CCC/C1=C\c1ccccc1)c1ccc([N+](=O)[O-])cc1            TGI  > 100 µM
 5  CCCCCCCCCCCCOC1C(CNCC2OC3OC(C)(C)OC3C2NC(=O)Nc2ccc(C(=O)OCC)cc2)OC2OC(C)(C)OC21 (centres undefined)            TGI   3.76 µM
 6       Clc1ccc(Cc2nc3cc4ccccc4cc3[nH]2)cc1            TGI  > 100 µM
 7  CC(C)CCNC(=O)c1ccc(CNC(=O)/C=C/c2ccc(OCc3ccccc3)cc2)cc1            TGI  > 100 µM
 8  CC(C)c1c(P(=O)(c2ccccc2)c2ccccc2)n(C)c2ccccc12            TGI  > 100 µM
 9  CCOC(=O)c1c(SCCN2CCCC2)n(-c2ccccc2)c(=S)n(-c2ccccc2)c1=O            TGI   3.53 µM
10  CCOC(=O)C1C(=O)CC(O)(c2ccccc2)C(C(=O)OCC)C1c1ccc(OC)cc1 (centres undefined)            TGI   47.9 µM
11       O=[n+]1c(CBr)c(CBr)n([O-])c2ccccc21            TGI   3.99 µM
12  COc1ccc(NC2Oc3cc4c(cc3C(c3cc(OC)c(OC)c(OC)c3)C2C)OCO4)cc1 (centres undefined)            TGI   2.96 µM
13       CN(O)C(=O)Cc1ccc(OCc2cccc(Cl)c2)cc1            TGI  > 100 µM
14    CCC1CCC2CCCC(C)N12 (centres undefined)            TGI  > 100 µM
15     CN1CCN(C(=S)N(C)C(=O)c2ccc(Cl)cc2)CC1            TGI  > 100 µM
16  Cc1ccc(C2=Nc3c(c(C)nn3-c3ccccc3)N=C(C(=O)O)C2)cc1            TGI   > 10 µM
17              Cc1c(Cl)cccc1Nc1ncccc1C(=O)O            TGI  > 100 µM
18  Fc1ccc(-c2nn(-c3ccccc3)cc2-c2nc3ccccc3o2)cc1            TGI   30.5 µM
19        N#Cc1c(OCCF)c2ccccc2n2c1nc1ccccc12            TGI  > 100 µM
20          Cc1cc2cccc(Cl)c2nc1C(=O)c1ccccc1            TGI  > 100 µM
21  O=C1Oc2cc3c(c4cccc1c24)OCN(c1ccc(Cl)cc1)C3            TGI  > 100 µM
22  CC1=CC=CC(C)(C)CC1(O[Si](C)(C)C)C(F)(F)F (centres undefined)            TGI  > 100 µM
23   CC1=CCCC(OC(N)=O)C1 (centres undefined)            TGI  > 100 µM
24                   CC(=O)OCCc1cccnc1/C=N/O            TGI  > 100 µM

====

Recorded GI50 by entry
Tested on: SNB-19 CNS
assay.summary: NCI tumour cell line growth inhibition, 48 h
readout.label: GI50

> print(dat)
                              line.notation    result
1                  S=C1NCCN1C1=Nc2ccccc2CO1  > 100 µM
2  COc1ccccc1NC(=O)c1ccc(/C=C/C(=O)c2nccn2C)cc1  0.553 µM
3  NNC(=O)c1cnn(-c2ccnc3c(C(F)(F)F)cccc23)c1N  > 100 µM
4  Fc1ccc(-c2nn(-c3ccccc3)cc2-c2nc3ccccc3o2)cc1   4.82 µM
5  C[C@@H]1Cc2c([nH]c3ccccc23)[C@@H](c2c(F)cc(/C=C/C(=O)O)cc2F)N1CC(C)(C)F   13.7 µM

====

System: MALME-3M melanoma
assay.summary: NCI tumour cell line growth inhibition, 48 h; in the data active = GI50 below about 0.43 µM; inactive = the rest
Labels: true (1) for active, false (0) for inactive

> print(dat)
                              line.notation  measurement.target  answer.label
1  COc1cc2c(c(OC)c1OC)-c1ccc(NCc3ccccc3)c(=O)cc1[C@@H](NC(C)=O)CC2   MALME-3M melanoma     false (0)
2  COc1ccccc1NC(=O)c1ccc(/C=C/C(=O)c2nccn2C)cc1   MALME-3M melanoma     false (0)
3  O=C(Cc1ccc(/C=C/C(=O)c2ncc[nH]2)cc1)Nc1ccc(Cl)cc1   MALME-3M melanoma     false (0)
4  COc1cc([C@@H]2c3cc4c(cc3C[C@H]3COC(=O)[C@@H]32)OCO4)cc(OC)c1OC   MALME-3M melanoma      true (1)
5       O=[n+]1c(CBr)c(CBr)n([O-])c2ccccc21   MALME-3M melanoma     false (0)
